# testProtocol: NCI Yeast Anticancer Drug Screen. Data for the rad50EPP+ strain (AID 151);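 note: 0% = growth of vehicle-treated control cultures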
# runConditions: S. cerevisiae rad50 mutant strain, at 11.0 µM, stronger effect = higher value
Compounds without any hit were thinned out: in the full panel of roughly 79,000, 15% have a hit.
quantity: growth inhibition (%)
Dear colleague, please return just the value in %, with no unit written.

O=C1NC(c2c(Cl)cccc2Cl)Nc2ccccc21 (configuration not stated) = -18

Request: Complete the entry with growth inhibition for `CN(NC(=O)/C(=C/c1ccc(O)cc1)NC(=O)c1ccccc1)c1ccnc2cc(Cl)ccc12`
Result: 14

Request: Complete the entry with growth inhibition for `[Pt].c1ccc(P(CCP(c2ccccc2)c2ccccc2)CCP(c2ccccc2)c2ccccc2)cc1`
Result: 11

Request: Complete the entry with growth inhibition for `CNc1ccc(Cc2c[nH]c3ccccc23)cc1`
Result: -23
